# Assay target: OTUD5 (UniProt Q96G74)
# Sequence (whole entry): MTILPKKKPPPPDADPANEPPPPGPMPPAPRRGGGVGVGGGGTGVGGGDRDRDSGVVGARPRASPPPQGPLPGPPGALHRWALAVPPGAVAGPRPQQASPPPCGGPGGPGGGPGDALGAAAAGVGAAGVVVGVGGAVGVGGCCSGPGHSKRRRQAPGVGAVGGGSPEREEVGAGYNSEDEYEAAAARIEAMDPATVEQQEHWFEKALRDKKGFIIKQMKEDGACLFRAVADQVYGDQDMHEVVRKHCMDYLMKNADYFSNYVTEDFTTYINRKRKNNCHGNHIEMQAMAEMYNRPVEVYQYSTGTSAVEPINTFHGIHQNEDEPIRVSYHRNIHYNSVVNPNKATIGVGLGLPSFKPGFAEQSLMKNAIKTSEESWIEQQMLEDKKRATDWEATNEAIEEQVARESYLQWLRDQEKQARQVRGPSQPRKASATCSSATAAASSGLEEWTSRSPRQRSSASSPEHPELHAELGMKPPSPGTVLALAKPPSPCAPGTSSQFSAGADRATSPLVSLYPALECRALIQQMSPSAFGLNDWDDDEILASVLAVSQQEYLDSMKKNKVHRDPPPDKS
# Assay protocol: log2 ratio of Biotin-Ahx-Ub-VS probe labelling (fragment/DMSO); higher = less target engagement (more negative = stronger competition), active = hit call of the paper (q ≤ 0.05, log2 ratio ≤ -1)
# Reported conditions: compound concentration: 200 uM; treatment time: 3 h
Label True when log2 ratio of Biotin-Ahx-Ub-VS probe labelling is at or above -0.6; otherwise label False.

Molecule	Label value
O=C(CCl)NC1CCOc2ccccc21 (centres undefined)	False
CC(NC(=O)CCl)c1cccc(Cl)c1 (centres undefined)	True
CC(O)CC1CCN(C(=O)CCl)CC1 (centres undefined)	True
O=C(CCl)Nc1nc(-c2cccs2)cs1	False
O=C(CCl)N(C1=CCCCC1)C1CC1	True
CCN(Cc1ccc(C#N)cc1F)C(=O)CCl	False
Cl.Cn1cnc2cc(CNC(=O)CCl)ccc21	True
Cl.O=C(CCl)N1CCc2ncncc2C1	True
O=C(CCl)NCCC1COCCO1 (centres undefined)	True
O=C(CCl)N1CCCC1c1ccsc1 (centres undefined)	False
CCC1c2ccsc2CCN1C(=O)CCl (centres undefined)	False
Cl.O=C(CCl)NCCN1CCc2ccccc21	False
Cl.O=C(CCl)N1CCC(n2nc3ccccc3n2)CC1	True
